Give half-life for every item shown.
assay: Half life in iv dosed Sprague-Dawley rat; assay type: ADME, organism-based; conditions: in vivo
Your answer should be a plain number; it is taken to be in h.

Qu. # half-life lookup, item `COC(=O)N[C@H](C(=O)N1C[Si](C)(C)C[C@H]1c1ncc(-c2ccc(-c3ccc4c(ccc5nc([C@@H]6CC(F)(F)CN6C(=O)[C@@H](NC(=O)OC)C(C)C)[nH]c54)c3)cc2)[nH]1)C(C)C`
Ans. 6.7

Qu. Also `COC(=O)N[C@H](C(=O)N1CCC[C@H]1c1ncc(-c2ccc(-c3ccc4c(ccc5nc([C@@H]6C[Si](C)(C)CN6C(=O)[C@@H](NC(=O)OC)C(C)C)[nH]c54)c3)cc2)[nH]1)C(C)C` ?
Ans. 6.6
